Taken from ChEMBL document CHEMBL1130219.

System: Vero
Assay: Compound was evaluated for its toxicity by […] assay in vero cells
Type: functional, cell-based
Settings: Chlorocebus sabaeus
pIC50: −log10 of the molar value.
Listed next: entries and their corresponding pIC50.

Worked cases, answers included:
- Structure Smiles: "Nc1nc(=O)n([C@H]2O[C@@H](CO)[C@H](O)C2(F)F)cc1I"
  pIC50: "< 4.00"
- Structure Smiles: "O=c1[nH]c(=O)n([C@H]2O[C@@H](CO)[C@H](O)C2(F)F)cc1F"
  pIC50: "< 4.00"
- Structure Smiles: "Nc1nc(=O)n([C@@H]2O[C@@H](CO)[C@H](O)C2(F)F)cc1I"
  pIC50: "< 4.00"
- Structure Smiles: "Nc1ncnc2c1ncn2[C@@H]1O[C@@H](CO)[C@H](O)C1(F)F"
  pIC50: "< 4.00"

I looked up `Nc1ncnc2c1ncn2[C@H]1O[C@@H](CO)[C@H](O)C1(F)F` and its pIC50 for Vero was < 4.00

I looked up `O=c1[nH]c(=O)n([C@@H]2O[C@@H](CO)[C@H](O)C2(F)F)cc1F` and its pIC50 for Vero was 4.00

I looked up `Cc1cn([C@H]2C[C@H](N=[N+]=[N-])[C@@H](CO)O2)c(=O)[nH]c1=O` and its pIC50 for Vero was 4.54
